Measured Induced DiI Uptake (pmol/ug/ml), BHK(SR-BI) cells induced for human SR-BI, 4 h accompanies every entry in the list below.
# tested-target: T1, human scavenger receptor class B, type 1 (SR-BI) (human, UniProt Q8WTV0 1-552)
# T1 sequence (looked up): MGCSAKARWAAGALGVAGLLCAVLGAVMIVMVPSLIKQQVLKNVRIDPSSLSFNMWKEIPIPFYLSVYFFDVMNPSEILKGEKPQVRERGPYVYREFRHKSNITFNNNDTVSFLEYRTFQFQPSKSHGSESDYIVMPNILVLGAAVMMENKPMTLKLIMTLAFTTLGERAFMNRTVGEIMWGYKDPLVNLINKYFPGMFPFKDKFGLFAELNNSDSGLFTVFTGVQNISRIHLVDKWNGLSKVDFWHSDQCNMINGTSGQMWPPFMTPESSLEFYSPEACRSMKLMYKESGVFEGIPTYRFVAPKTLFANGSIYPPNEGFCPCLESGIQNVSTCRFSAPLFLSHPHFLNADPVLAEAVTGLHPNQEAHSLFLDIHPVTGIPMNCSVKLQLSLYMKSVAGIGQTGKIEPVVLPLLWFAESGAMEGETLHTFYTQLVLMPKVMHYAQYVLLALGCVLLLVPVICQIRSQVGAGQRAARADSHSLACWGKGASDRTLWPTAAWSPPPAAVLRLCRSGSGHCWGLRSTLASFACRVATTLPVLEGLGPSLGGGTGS
# test: cell-based or functional assay
Non-standard residues stand in square brackets, D forms with d. No end group written: not given here. Aib = CC(C)(N)C(=O)O
parameter-measured: Induced DiI Uptake (pmol/ug/ml), BHK(SR-BI) cells induced for human SR-BI, 4 h (pmol/µg/mL)

binder: DVFQKLVELFNQLLEKWKQV (also: peptide amphiphile lipid micelle with POPC, egg sphingomyelin, DiI) [DiI-labeled PALM prepared with the peptide of SEQ ID NO: 26]
unit-of-measure: pmol/µg/mL
endpoint-result: 0.81
//
binder: DVFQ[Aib]LKELLNQLLEKFKQV (also: formulated as DiI-labeled peptide amphiphile lipid micelle with POPC and egg sphingomyelin) [DiI-labeled PALM prepared with the peptide of SEQ ID NO: 5]
unit-of-measure: pmol/µg/mL
endpoint-result: 0.93
//
binder: DVFQKL[Aib]ELFNQLLEKWKQV (also: formulated as DiI-labeled peptide amphiphile lipid micelle with POPC and egg sphingomyelin) [DiI-labeled PALM prepared with the peptide of SEQ ID NO: 25]
unit-of-measure: pmol/µg/mL
endpoint-result: 0.83
